B1: EHEE_rd4_0726 (parent)
chain: DIEITTNGEEDAKRVIKELQKRNLEYHIEVHGNQWVIKVR

- Variants of: B1
- EXPERIMENT NOTES: folding stability dG (cDNA display proteolysis); higher = more stable
- MEASUREMENT CONTEXT: PBS, room temperature
Measured folding stability dG by item
Write down the value, and be sure its unit follows.

>  <CONSTRUCT SEQUENCE>
DIEIPTNGEEDAKRVIKELQKRNLEYHIEVHGNQWVIKVR

>  <folding stability dG>
6.64 kJ/mol

$$$$
>  <CONSTRUCT SEQUENCE>
DIEITTNGEEDAKRVIKELQKRNLEYHIEVHGGQWVIKVR

>  <folding stability dG>
9.78 kJ/mol

$$$$
>  <CONSTRUCT SEQUENCE>
DIEITTNGEEDAKRVIKELQKRNLEYHIEVHGFQWVIKVR

>  <folding stability dG>
8.61 kJ/mol

$$$$
>  <CONSTRUCT SEQUENCE>
DIEITTNGEEDAKRVIKELQKRNLEYHIETHGNQWVIKVR

>  <folding stability dG>
7.15 kJ/mol

$$$$
>  <CONSTRUCT SEQUENCE>
DINITTNGEEDAKRVIKELQKRNLEYHIEVHGNQWVIKVR

>  <folding stability dG>
7.81 kJ/mol

$$$$
>  <CONSTRUCT SEQUENCE>
DIEITTNGEEDAKRVIKELQKRNLEYHIEVHGNQAVIKVR

>  <folding stability dG>
1.23 kJ/mol

$$$$
>  <CONSTRUCT SEQUENCE>
DIEITTNQEEDAKRVIKELQKRNLEYHIEVHGNQWVIKVR

>  <folding stability dG>
7.71 kJ/mol

$$$$
>  <CONSTRUCT SEQUENCE>
DIEITQNGEEDAKRVIKELQKRNLEYHIEVHGNQWVIKVR

>  <folding stability dG>
3.52 kJ/mol

$$$$

Reported folding stability dG of DIEITTNGEKDAKRVIKELQKRNLEYHIEVHGNQWVIKVR : 8.94 kJ/mol

Reported folding stability dG of DIEITTNGEEDAKRVIKELQKRNLEFHIEVHGNQWVIKVR : 10.6 kJ/mol

Reported folding stability dG of DIELTTNGEEDAKRVIKELQKRNLEYHIEVHGNQWVIKVR : 6.96 kJ/mol

Reported folding stability dG of DIEITTNGEEDAKRVIKELQKRNLEWHIEVHGNQWVIKVR : 8.16 kJ/mol

Reported folding stability dG of DIEITTIGEEDAKRVIKELQKRNLEYHIEVHGNQWVIKVR : 10.2 kJ/mol

Reported folding stability dG of DIEITVNGEEDAKRVIKELQKRNLEYHIEVHGNQWVIKVR : 14.8 kJ/mol

Reported folding stability dG of DIEITTNGEEWAKRVIKELQKRNLEYHIEVHGNQWVIKVR : 10.9 kJ/mol

Reported folding stability dG of DIEITTNGEEDAKRVIKELQKRNLEYHIEVHANQWVIKVR : 6.03 kJ/mol

Reported folding stability dG of DIEITTNGEEDAKRVIKELQKRNLEYHIEVPGNQWVIKVR : -2.51 kJ/mol

Reported folding stability dG of DIEITTNGEEDAKRVIKELQKRNLEIHIEVHGNQWVIKVR : 6.4 kJ/mol

Reported folding stability dG of DIEITTNGEEDLKRVIKELQKRNLEYHIEVHGNQWVIKVR : 10.6 kJ/mol

Reported folding stability dG of DIEITTNGEEDAKRVIKELQKRNLEYHIEVHGNQWHIKVR : 6.16 kJ/mol

Reported folding stability dG of DIEITTNGEEDAKVVIKELQKRNLEYHIEVHGNQWVIKVR : 8.56 kJ/mol

Reported folding stability dG of DIEITTNGEEDAKCVIKELQKRNLEYHIEVHGNQWVIKVR : 10.7 kJ/mol

Reported folding stability dG of DIEITTNGEEDAKRVIKELQKRNLEYHVEVHGNQWVIKVR : 10.6 kJ/mol

Reported folding stability dG of DIEITTNGDEDAKRVIKELQKRNLEYHIEVHGNQWVIKVR : 6.26 kJ/mol

Reported folding stability dG of DIEITTNGEEDAKRVIKELQKRNIEYHIEVHGNQWVIKVR : 10.3 kJ/mol

Hey, just so you know, these numbers are from the MegaScale stability set (Tsuboyama et al. 2023).
